# protocol.description: soluble on expression in E. coli; label from the status in PepcDB or PDB records

sequence.record	soluble on expression in E. coli
MSGVASGKTAIKSTAKVLSFVVQKHWATRLHYDFRLELEGTMKSWAVPKGPSFDPNDKRMAVHVEDHPISYNSFEGEIPSGQYGAGKVIIWDKGTWIPLEDPHKGYRDGKLKFELRGLKLKGHWALVRMRKEENKKQEPWLLIKEKDEYVRSSREYSVVDEMPDSVAELEHHHHHH	not soluble
MGREVAESCVDTMLMEMVAMYSGRFYANKPELAARRIEAIGYQVGHQLSERYTMERPRFSDHLEAIKFICKDFWSEVFKKQIDNLKTNHRGTFVLQDNKFRWLSRVSIDPSSENETQDPSTPGESKAAQAVSMYLYFPCGIIRGVLSNLGIPCAVSADISSLPTCSFVIRVKA	not soluble

----------
# protocol.description: soluble on expression in E. coli; label from the status in PepcDB or PDB records
endpoint: soluble on expression in E. coli

Reference set (5 entries):
sequence.record	soluble on expression in E. coli
MGSDKIHHHHHHMYNVQTYKEKISRFEEVCFNWELKRASIVLNKRFSSYNSSAKVLLDAGFSLYAAKIEVCRELNNGEELERQYTYRSIAEGTLSEKDFKYIWEQCMSGSGNQTSILTIDEHFYSVQTELDKGWEKSCIVFYDKNEPIGMSIPHIETGTESEGRLFYFGVMLYYRGKGIASRLHLQSLHMLKEMGATYYIGSTHTSNEKMQRIFWRNNCSLKTEIELYYKIFNEG	not soluble
SARKSNLPVLLVPFLLCQALVRCSSPLPLVVNTWPFKNATEAAWRALASGGSALDAVESGCAMCEREQCDGSVGFGGSPDELGETTLDAMIMDGTTMDVGAVGDLRRIKNAIGVARKVLEHTTHTLLVGESATTFAQSMGFINEDLSTSASQALHSDWLARNCQPNYWRNVIPDPSKYCGPYKPPGILKQDIPIHKETEDDRGHDTIGMVVIHKTGHIAAGTSTNGIKFKIHGRVGDSPIPGAGAYADDTAGAAAATGNGDILMRFLPSYQAVEYMRRGEDPTIACQKVISRIQKHFPEFFGAVICANVTGSYGAACNKLSTFTQFSFMVYNSEKNQPTEEKVDCI	soluble
MDWRWWKIAYEELTEKQQRFVDKYITTFNATESAKQAGYSEKSAYSQGQRLLKNVEIQKAMKERFLEAKDTKGDRIQDVAETLEQDTSIARGEIQISEFKETDMLTGQVVIHTKREYTPSHEEQGRARDRIYKVNGAYSEKRELEHSGTVVFANEDNIPD	not soluble
MKFKYLSTPLLFSALLFSACSSVNVGANLKSLIKETTDQDLDLSESVSTSEGKKNLISSLKKSYETNPSKTASVLLNAWKQSVENGQIESSETNWTNWKFP	soluble
MLIRQAGPADNAQLLDFQQRHAMRGSMPLRFDRSPDYFALHHCHAADHRTWIAQSPEGELRGSASLVVRDGYLQGSAEPIAYLGDLRLMPDRRLSRSWMAEVQTRLADLSLQTGAQHAYCCIIRDNPLAIQSLLGRRRANPLKLAHWRGYSNVSVYGQRGLSSAPRTHAGVRVVRAEPRHLDALRAFLDSESSRQSFGCVFSETEFERRISHWPDFAIGSFLLAVDERENLLGCVAPWDAGKIKRIVVEQMPVAQQLLRMGYNAVAPLAGRPGIASPGNPLRDIYLTHLQVRQRDPEVFAALLDVAWAQVRKDYSLMQLCLYDQDPLWLAMRRYRSVSLPMDLYTAPCGSNTPVFTETCAAGVPGFEIYLV	not soluble

Which soluble on expression in E. coli value is on record for "PSTVPIMHQVSATMRSITLSWPQPEQPNGIILDYEIRYYEKEHNEFNSSMARSQTNTARIDGLRPGMVYVVQVRARTVAGYGKFSGKMCFQTLTD" ?
soluble

Which soluble on expression in E. coli value is on record for "MSLRAVVTMGHGDLDQLVLHPDWPRPDPEPGEVLIRVGACGLNNTDVNTRSGWYSKTVTDATTGGAFDEVGEDDPTWGGAPITFPRIQGADVCGTIVAVGAGVDAARIGERVITDGWLRDADAPEDMNKTGYFGSERNGGFAEYTTIPSSNALDVNSTLSDAELATFSCSYSTAEGMLTRARVTADDTVLIPGASGGVGGALVQLAKRRGARVIAIASEGKHSDVAALGPDMILPRAPAHLRSALGDERITVVADVVGGPYWPSLIDILERGGRYTCSGAIAGPMVSLDLRTFYLRDLTFTGSTVIDLEVMPNIVRYIEEGAIKPSLAATYPLEDLRAAQSAFIAKEHTGNIVVTEGHHHHHH" ?
not soluble

----------
# protocol.description: soluble on expression in E. coli; label from the status in PepcDB or PDB records
endpoint: soluble on expression in E. coli

Reference set (4 entries):
sequence.record	endpoint	recorded.measurement
MGHHHHHHSHMGFGSDLKNSHEAVLKLQDWELRLLETVKKFMALRIKSDKEYASTLQNLCNQVDKESTVQMNYVSNVSKSWLLMIQQTEQLSRIMKTHAEDLNSGPLHRLTMMIKDKQQVKKSYIGVHQQIEAEMIKVTKTELEKLKCSYRQLIKEMNSAKEKYKEALAKG	soluble on expression in E. coli	soluble
GSHMIASLSDSVSNAREERMALRQEQEQLQSRIQSLMQRAPVWLAAQNSLNQLSEQCGEEFTSSQDVTEYLQQLLEREREAIVERDEVGARKNAVDEEIERLSQPGGSEDQRLNALAERFGGVLLSEIYDDVSLEDAPYFSALYGPSRHAIVVPDLSQVTEHLEGLTDCPEDLYLIEGDPQSFDDSVFSVDELEKAVVVKIADRQWRYSRFPEVPLFGRAARESRIESLHAEREVLSERFATLSFDVQKTQRLHQAFSRFIGSHLAVAFESDPEAEIRQLNSRRVELERALSNHENDNQQQR	soluble on expression in E. coli	soluble
MAHHHHHHMSSEHWVFFGLPPFFTEQHSSATLDRQCTLWSNLLLDHAIYHAQRTAGGDTNALLRFYTTQSDIFYNPAINKRLSPEGAHTMLQSLVARHPNHVVIVSDGGPRDFSVLVCTTEDGFKGMEETLLRYILDHGEVQTTAMLSKKGTVMTFDELASGAALGYGQTRSAYLARFSSAAVPVADVGRLSEEQAIRMYLHALNRRPVSAMRPFKVTLFNLDGTATQPYQGVKFGGE	soluble on expression in E. coli	soluble
GINAGKMAMIVTDKGEQVTKAINACCNRGSTILKGMGGYKMDKKEVVICACNNKEMFFVQQVVKEVDPAAFTVVLESNEVHGEGFKMFQIGEGNVTVQTGLRSCCADRAKMQRQ	soluble on expression in E. coli	not soluble

Please look at the following sequence next.
Which soluble on expression in E. coli value is on record for "MGSDKIHHHHHHMNPQPSGATVDKGSVNPEQISIKTFGGLGLSYLNSPMTILWESQKARILFCYLLISYDQWLHRDKLIDMLWPGCDPVSGAKNFKTTLSRLRKSFMGPRSINPIMTLGEAIRLDFNIFSLDSSQFKGYAQTGIKMLARGDISGARRYLEAAQDEYSGEFLPEEPFDHHICAERAELERLHESVLTSLQKVYQLEGNNDAVEAISFLKAVHTNS" ?
not soluble

----------
# protocol.description: soluble on expression in E. coli; label from the status in PepcDB or PDB records

sequence.record	soluble on expression in E. coli
GSNGMSQLPAPVSVESSWRYIDTQGQIHGPFTTQMMSQWYIGGYFASTLQISRLGSTPETLGINDIFITLGELMTKLEKYDTDPFTTFDKLHVQTTSSDS	soluble
MRSGDAEIKGIKPKVIEEYSLSQGSGPSNDSWKSLMSSAKDTPLQYDHMNRESLKKYFNPNAQLIEDPLDKPIQYRVCEKCGKPLALTAIVDHLENHCAGASGK	soluble
MGSDKIHHHHHHMNFIDTLKSVDLILSTGEVPLIVGESGIGKTALANKLAKENDWSLIVIDGNLLKEGEIGGLPTIESYVGVNSNGYKTEKKTTVYAVHNKLREIDEEISKSKTVLLFIDEINRCEHTVQQELMNLILNREINGYKLHDDVKILAAMNPSSKYGSDFDYQVVDMDAAQENRFVWLNMESDHTQWIKWAIDEGIERKVIEFISTFPEYLHKINEDDVRATPRSYERVSKIYKVYKEKNNSIPRAVFLNVVKGNVGKVIAEEFISFIESNFEPLISYEDVFLGESIDESIVERVKNESHTRLYLSAMNILKDLELNIKNDKYESNHYINRFIEFLKMYPVDLMIGIMKDIRNSYIEVYKKAIENEEFVKSYFESYSLIRG	not soluble
SNRHLCKECFKKDIERRAKKVLGKDIIRNNVKIGIGISGGKDSLVMAYILKELFKHIPNAKLICFFVDEGIKGFRNIAEKYVKEFCKEYNLDLKIIKFEDEIGYTLDEIVKNDYLSKLNIGKPCSFCGVVRRYLLNKHALKEGCDYLAIGHNLDDFCQTILMNYVEGNIKNIIQFGKEFEGGGFVKRIKPLKLIPEEEVKLYAEINNIKYQREPC	not soluble

// data source = the DeepSol protein solubility set
